Reported pIC50 is given for each of the following compounds.
Target: Recombinant human c-Cbl (aa 47-435) (Homo sapiens)
Sequence (P22681 47-435): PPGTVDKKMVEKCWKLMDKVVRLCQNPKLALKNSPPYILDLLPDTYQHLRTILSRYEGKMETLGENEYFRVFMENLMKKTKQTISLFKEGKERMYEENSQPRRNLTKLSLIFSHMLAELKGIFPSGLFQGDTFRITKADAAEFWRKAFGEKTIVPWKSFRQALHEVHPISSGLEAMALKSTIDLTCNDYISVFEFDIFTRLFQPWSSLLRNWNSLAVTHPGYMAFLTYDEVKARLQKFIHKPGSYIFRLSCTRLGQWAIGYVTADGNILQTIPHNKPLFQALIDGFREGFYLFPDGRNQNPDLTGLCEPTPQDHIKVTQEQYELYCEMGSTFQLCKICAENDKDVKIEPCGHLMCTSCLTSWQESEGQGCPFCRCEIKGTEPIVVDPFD
Assay: c-Cbl Biochemical Assay (TR-FRET)
Conditions: hc-Cbl Biochemical Assay (TR-FRET); read-out: TR-FRET hcCbl IC50
pIC50: −log10 of the molar value.

Look over these answered cases.
# compound, pIC50
rows = [
    ("COCCNCc1cc2nc(-c3cc(-c4ccc(F)cc4-c4nncn4C)cc(C4CC4)n3)oc2c(C)c1F [AHG-1]", "> 6.70"),
    ("CCNc1cc(-c2ccc(F)cc2-c2nncn2C)cc(-c2nc3cccc(C(F)(F)F)c3o2)n1 [AEJ-4]", "5.00 to 6.00"),
    ("Cn1cnnc1-c1cc(F)ccc1-c1cccc(-c2nc3cc(CO)ccc3o2)c1 [AJ-3]", "4.30 to 5.00"),
    ("COC(=O)c1cc(OC)c2oc(-c3cccc([C@]4(c5nncn5C)C[C@@H](C)C4)c3)nc2c1 [AEA-1]", "4.30 to 5.00"),
    ("COC[C@H](C)NCc1cc(C(F)(F)F)c2oc(-c3cccc(-c4ccc(F)cc4-c4nncn4C)c3)nc2c1 [EJ-2]", "> 6.70"),
]

Consider Cn1cnnc1[C@]1(c2cccc(-c3nc4cc(CO)cc(C(F)(F)F)c4o3)c2)C[C@H](C)C1 [ADD-1] . Its measured pIC50 is 5.00 to 6.00

// recorded pIC50 for C[C@@H]1CN(Cc2cc(C(F)(F)F)c3oc(-c4cccc(-c5ccccc5-c5nncn5C)c4)nc3c2)CCO1 [Example 0-4] : 4.30 to 5.00

Lookup result for Cc1cc(CN[C@@H]2CCC[C@@H]2O)cc2nc(-c3cc(-c4ccc(F)cc4-c4nncn4C)cc(C4CC4)n3)oc12 [AEU-2] ; measured pIC50: > 6.70

* * *

Test system: Jurkat (clone E6-1) cells with NFAT luciferase reporter
Experiment: Jurkat reporter assay (NFAT Luciferase)
Format: cell-based
Conditions: Homo sapiens; Jurkat NFAT luciferase reporter cells, anti-CD3 stimulation, 6 hr; read-out: Jurkat NFAT EC50
List of EC50 values.

# compound, assay-system, EC50
rows = [
    ("Cn1cnnc1-c1ccccc1-c1cc(-c2nc3cc(CN4CCC5(CC5)C4)cc(C(F)(F)F)c3[nH]2)nc(C2CC2)c1 [AAS-2]", "Jurkat (clone E6-1) cells with NFAT luciferase reporter", "1000 to 10000 nM"),
    ("CC(c1cc(C(F)(F)F)c2oc(-c3cccc(C4(Cc5nncn5C)COC4)c3)nc2c1)N1CCC2(CC2)C1 (stereo not shown) [AAB-9]", "Jurkat (clone E6-1) cells with NFAT luciferase reporter", "200 to 1000 nM"),
    ("Cn1cnnc1-c1cc(F)ccc1-c1cccc(-c2nc3cc(CO)cc(Br)c3o2)c1 [EQ-4]", "Jurkat (clone E6-1) cells with NFAT luciferase reporter", "1000 to 10000 nM"),
]

Next:
Data point: Cn1cnnc1-c1cc(F)ccc1-c1cccc(-c2nc3cc(CNCC4CCC4)cc(C(F)(F)F)c3o2)c1 [EM-2] ; EC50 = < 200 nM

* * *

Tested on: Jurkat (clone E6-1) cells with NFAT luciferase reporter
Assay: Jurkat reporter assay (NFAT Luciferase)
Assay type: cell-based
Details: Homo sapiens; Jurkat NFAT luciferase reporter cells, anti-CD3 stimulation, 6 hr; read-out: Jurkat NFAT EC50
readout-type: EC50

Solved cases (2 shown):
# smiles-notation, readout-type, data-value
records = [
    ("Cn1cnnc1-c1cc(F)ccc1-c1cccc(-c2nc3cc(CN[C@@H]4C[C@H](O)C4(C)C)cc(C(F)(F)F)c3o2)c1", "EC50", "200 to 1000 nM"),
    ("Cn1cnnc1-c1cc(F)ccc1-c1cccc(-c2nc3cc(CN[C@@H]4CC[C@@H]4O)cc(C(F)(F)F)c3o2)c1", "EC50", "< 200 nM"),
]

Sure, the documented EC50 for `Cn1cnnc1-c1cc(F)ccc1-c1cccc(-c2nc3cc(CN[C@@H]4CCC[C@@H]4F)cc(C(F)(F)F)c3o2)c1` is < 200 nM

GET /value?item= `CO[C@H](C)[C@@H](C)NCc1cc(C)c2oc(-c3cc(-c4ccc(F)cc4-c4nncn4C)cc(C4CC4)n3)nc2c1` &field=EC50 returns 200 to 1000 nM

Entry under test: `CCCNCc1cc(C(F)(F)F)c2oc(-c3cccc(-c4ccc(F)cc4-c4nncn4C)c3)nc2c1` . Its EC50 was < 200 nM

get_value(item= `CN1CCC[C@H](NCc2cc(C(F)(F)F)c3[nH]c(-c4cccc(-c5ccc(F)cc5-c5nncn5C)c4)nc3c2)C1=O` , readout=EC50) returns 1000 to 10000 nM

The compound `Cn1cnnc1-c1cc(F)ccc1-c1cccc(-c2nc3cc(CNC[C@@]4(C)CCO4)cc(C(F)(F)F)c3o2)c1` showed EC50 equal to 200 to 1000 nM

The value of EC50 measured for the compound `Cn1cnnc1-c1cc(F)ccc1-c1cc(C(=O)Nc2cc(CN3CCC4(CC4)C3)cc(C(F)(F)F)c2N)nc(C2CC2)c1` turned out to be 200 to 1000 nM

Briefly, EC50 measured for `Cn1cnnc1-c1cc(Cl)ccc1-c1cccc(-c2nc3cc(CN[C@@H]4CCC[C@@H]4O)cc(C(F)(F)F)c3[nH]2)c1` : < 200 nM

Consider `Cc1cc(CN(C)[C@@H]2CCC[C@@H]2O)cc2nc(-c3cc(-c4ccc(F)cc4-c4nncn4C)cc(C4CC4)n3)oc12` . Its measured EC50 is < 200 nM

Entry `Cn1cnnc1-c1cc(F)ccc1-c1cccc(-c2nc3ccc(CN[C@@H]4CCC[C@@H]4O)cn3n2)c1` ; EC50 = 1000 to 10000 nM

* * *

System: Jurkat (clone E6-1) cells with NFAT luciferase reporter
Test: Jurkat reporter assay (NFAT Luciferase)
Assay type: cell-based
Conditions: Homo sapiens; Jurkat NFAT luciferase reporter cells, anti-CD3 stimulation, 6 hr; read-out: Jurkat NFAT EC50
EC50 listing for selected compounds.

A selection of reference data follows.
# compound, assay-system, readout-type, data-value
rows = [
    ("Cn1cnnc1-c1cc(F)ccc1-c1cccc(-c2nc3cc(CNCCC4CCCC4)cc(C(F)(F)F)c3o2)c1 [HN-1]", "Jurkat (clone E6-1) cells with NFAT luciferase reporter", "EC50", "0.2 to 1 µM"),
    ("Cn1cnnc1-c1cc(F)ccc1-c1cc(-c2nc3cc(CN[C@@H]4CCC[C@@H]4O)cc(C(F)(F)F)c3o2)nc(C2CC2)c1 [ADA-6]", "Jurkat (clone E6-1) cells with NFAT luciferase reporter", "EC50", "< 0.2 µM"),
    ("Cn1cnnc1-c1cc(F)ccc1-c1cccc(-c2nc3cc(CNC[C@H](O)C(F)(F)F)cc(C(F)(F)F)c3o2)c1 [DM-2]", "Jurkat (clone E6-1) cells with NFAT luciferase reporter", "EC50", "< 0.2 µM"),
]

// returns EC50 for C[C@H](Cc1nncn1C)c1cccc(-c2nc3ccc(Br)c(C(F)(F)F)c3[nH]2)c1 [AV-9] with Jurkat (clone E6-1) cells with NFAT luciferase reporter; value = 1 to 10 µM

* * *

Test system: Jurkat (clone E6-1) cells with NFAT luciferase reporter
Assay: Jurkat reporter assay (NFAT Luciferase)
Type: cell-based
Conditions: Homo sapiens; Jurkat NFAT luciferase reporter cells, anti-CD3 stimulation, 6 hr; read-out: Jurkat NFAT EC50
readout-type: EC50

Below are worked cases with known answers.
# compound, assay-system, EC50
rows = [
    ("Cn1cnnc1-c1cc(F)ccc1-c1cccc(-c2nc3cc(CO)cc(C(F)(F)F)c3[nH]2)c1", "Jurkat (clone E6-1) cells with NFAT luciferase reporter", "1000 to 10000 nM"),
    ("Cn1cnnc1CC1(c2cccc(-c3nc4cc(CN5CCC6(CC6)C5)cc(C(F)(F)F)c4[nH]3)c2)COC1", "Jurkat (clone E6-1) cells with NFAT luciferase reporter", "1000 to 10000 nM"),
    ("C[C@H](N[C@@H]1CCC[C@@H]1O)c1cc(C(F)(F)F)c2oc(-c3cccc(-c4ccc(F)cc4-c4nncn4C)c3)nc2c1", "Jurkat (clone E6-1) cells with NFAT luciferase reporter", "< 200 nM"),
    ("C[C@H](c1cc(C(F)(F)F)c2[nH]c(-c3cccc(C4(Cc5nncn5C)COC4)c3)nc2c1)N1CCC2(CC2)C1", "Jurkat (clone E6-1) cells with NFAT luciferase reporter", "1000 to 10000 nM"),
]

Measured EC50, `Cn1cnnc1-c1cc(F)ccc1-c1cccc(-c2nc3cc(CNC4(CO)COC4)cc(C(F)(F)F)c3o2)c1` : 1000 to 10000 nM

* * *

Biological target: Recombinant human Cbl-b (aa 36-427) (Homo sapiens, UniProt Q13191)
Sequence (Q13191 36-427): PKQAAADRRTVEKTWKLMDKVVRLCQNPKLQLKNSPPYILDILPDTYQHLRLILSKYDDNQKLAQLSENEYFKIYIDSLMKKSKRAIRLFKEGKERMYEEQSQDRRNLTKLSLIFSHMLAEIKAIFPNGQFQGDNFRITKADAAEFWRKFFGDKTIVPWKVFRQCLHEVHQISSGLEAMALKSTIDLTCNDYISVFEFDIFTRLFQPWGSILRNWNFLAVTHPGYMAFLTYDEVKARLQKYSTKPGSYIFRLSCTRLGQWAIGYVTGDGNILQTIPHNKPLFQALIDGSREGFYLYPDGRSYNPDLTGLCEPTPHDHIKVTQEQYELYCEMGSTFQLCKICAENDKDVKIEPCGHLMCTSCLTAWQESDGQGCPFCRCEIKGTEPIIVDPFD
Assay: Cbl-b Biochemical Assay (TR-FRET)
Conditions: read-out: TR-FRET hCbl-b IC50
readout-type: IC50

# compound, IC50
records = [
    ("Cn1cnnc1-c1cc(F)ccc1-c1cccc(-c2nc3cc(CN4CC[C@@H](C#N)C4)cc(C(F)(F)F)c3o2)c1", "< 200 nM"),
    ("Cn1cnnc1CC1(c2cccc(-c3nc4cc(Br)cc(C(F)(F)F)c4o3)c2)COC1", "200 to 1000 nM"),
    ("Cn1cnnc1-c1cc(C#N)ccc1-c1cccc(-c2nc3cc(CN[C@@H]4CCC[C@@H]4O)cc(C(F)(F)F)c3[nH]2)c1", "< 200 nM"),
    ("CCOc1cc(-c2ccc(F)cc2-c2nncn2C)cc(-c2nc3cc(CN[C@@H]4CCC[C@@H]4O)cc(OC)c3o2)n1", "< 200 nM"),
    ("Cn1cnnc1CC1(c2cccc(-c3nc4cc(C(=O)N5CCCC5)cc(C(F)(F)F)c4[nH]3)c2)COC1", "10000 to 50000 nM"),
    ("Cn1cnnc1-c1cc(Cl)ccc1-c1ccnc(-c2nc3cc(CN[C@@H]4CCC[C@@H]4O)cc(C(F)(F)F)c3o2)c1", "< 200 nM"),
]

Could you now consider this next compound?
Noted IC50 for `Cn1cnnc1-c1cc(F)ccc1-c1cc(-c2nc3cc(CN[C@@H]4CCC[C@@H]4O)c(F)c(F)c3o2)nc(C2CC2)c1` , tested on Recombinant human Cbl-b (aa 36-427) (Homo sapiens, UniProt Q13191): < 200 nM

Reference for the values: patent US20250163038A1
